Assay: Cytotoxicity against HBE (human bronchial epithelial) cells assessed as reduction in cell viability incubated for 48 hrs by MTT assay
Type: toxicity, cell-based
Each entry below carries its recorded IC50 at 48 h.

COc1ccc2cc3[n+](cc2c1OC)CCc1cc2c(cc1-3)OCO2 [BERBERINE CHLORIDE] ... > 50 µM
C[n+]1ccc(/C=C/c2c[nH]c3ccccc23)cc1 ... > 60 µM

Kindly consider the entry below.
The value of IC50 at 48 h measured for the compound CCCOC(=O)Cc1c2[n+](cc3c(OC)c(OC)ccc13)CCc1cc3c(cc1-2)OCO3 turned out to be > 30 µM

###

Test: Cytotoxicity against human HL7702 cells assessed as reduction in cell viability incubated for 48 hrs by MTT assay
Type: toxicity, cell-based
Conditions: HL7702 (L02) cells
// boundary case: IC50 at 48 h equal to 6 µM maps to No; strictly smaller maps to Yes

Use these answered entries as a reference point.
C=CCc1ccc(OCCCOC(=O)Cc2c3[n+](cc4c(OC)c(OC)ccc24)CCc2cc4c(cc2-3)OCO4)c(-c2ccc(OC)c(CC=C)c2)c1 ... No
C=CCc1ccc(OCCC)c(-c2ccc(OCCC[n+]3ccc(/C=C/c4c[nH]c5ccccc45)cc3)c(CC=C)c2)c1.[Br-] ... Yes
C=CCc1ccc(OCCC)c(-c2ccc(OCCCCCCCCCC[n+]3ccc(/C=C/c4c[nH]c5ccccc45)cc3)c(CC=C)c2)c1 ... No

Query: Please let me know if C=CCc1ccc(OC)c(-c2ccc(OCCCCCCCCCC[n+]3ccc(/C=C/c4c[nH]c5ccccc45)cc3)c(CC=C)c2)c1 shows IC50 at 48 h below 6 µM.
Reply: No

Query: Please let me know if C=CCc1ccc(OCCC)c(-c2ccc(OCCCCCC[n+]3ccc(/C=C/c4c[nH]c5ccccc45)cc3)c(CC=C)c2)c1 shows IC50 at 48 h below 6 µM.
Reply: Yes

Query: Please let me know if C=CCc1ccc(OCCCCCCCCCC[n+]2ccc(/C=C/c3c[nH]c4ccccc34)cc2)c(-c2ccc(OCCC)c(CC=C)c2)c1 shows IC50 at 48 h below 6 µM.
Reply: No

Query: Please let me know if C=CCc1ccc(OC(=O)Cc2c3[n+](cc4c(OC)c(OC)ccc24)CCc2cc4c(cc2-3)OCO4)c(-c2ccc(OCCC)c(CC=C)c2)c1 shows IC50 at 48 h below 6 µM.
Reply: Yes
